Some binders, each annotated with its measured MC5R IC50.
Biological target: T1, human ACTH 1-39 (human)
T1 peptide: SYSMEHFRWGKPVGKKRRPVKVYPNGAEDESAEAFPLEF
Assay: cell-based or functional assay
The response must be a number in nM with no trailing unit.

binder="Ab1 (antibody, human IgG1, kappa, N297A, V domains shown, rabbit/human chimeric antibody, made in HEK-293) VH: QSVKESGGRLVTPGTPLTLTCTVSGFSLSNYDMIWVRQAPGKGLESIGMIYDDGDTYYASWAKGRFTISKTSTTVDLKIISPTTEDTATYFCVKGVSNHWGPGTLVTVSS VL: DVVMTQTPASVEAAVGGTVTIKCQASQSISSYLAWYQQKPGQPPKLLIYSASTLASGVPSRFKGRGSGTEFTLTISDLECADAATYYCQSYDGSSGSSYGVGFGGGTEVVVKR" observed=1100
binder="Ab10 (antibody, human IgG1, kappa, N297A, V domains shown, rabbit/human chimeric antibody, made in HEK-293) VH: QSVEESGGRLVTPGTPLTLTCTVSGFSLSSADMIWVRQAPGKGLESIGMIYDDGDTYYATWAKGRFTISKTSTTVDLKIISPTTEDTATYFCVKGVSSVWGQGTLVTVSS VL: DVVMTQTPASVEAAVGGTVTINCQASENIYRSLAWYQQKPGQPPKLLIYSASTLASGVPSRFKGSGSGTEFTLTISDLECADAATYYCQSYDGSSSSSYGVGFGGGTEVVVKR" observed=5400
binder="Ab7 (antibody, human IgG1, kappa, N297A, V domains shown, rabbit/human chimeric antibody, made in HEK-293) VH: QSVEESGGRLVTPGTPLTLTCTVSGFSLSSYAMSWVRQAPGEGLEWIGIISDSGSTYYASWAKGRFTISKTSTTVDLRITSPTTEDTATYFCAREPEYGYDDYGDWVSDLWGQGTLVTVSS VL: DIVMTQTPASVEAAVGGTVTIKCQASQSISDYLSWYQQKPGQPPKLLIYRASTLASGVPSRFKGSGSGTQFTLTISDLECADAATYYCQSYYYSSSITYRNAFGGGTEVVVKR" observed=1100

Attention now turns to another entry.
Noted for Ab3 (antibody, human IgG1, kappa, N297A, V domains shown, rabbit/human chimeric antibody, made in HEK-293) VH: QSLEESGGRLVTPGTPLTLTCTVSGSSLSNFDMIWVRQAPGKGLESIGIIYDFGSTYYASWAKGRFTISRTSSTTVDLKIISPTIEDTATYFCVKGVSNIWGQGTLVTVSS VL: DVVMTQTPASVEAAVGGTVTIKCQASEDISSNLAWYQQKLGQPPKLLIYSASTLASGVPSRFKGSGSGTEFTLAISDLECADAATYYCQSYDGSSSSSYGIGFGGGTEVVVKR : its MC5R IC50 reads 1100

Values compiled from patent US20230174641A1.
